# assayed target: cannabinoid 1 receptor (Homo sapiens)
# Construct: Eurofins DiscoverX, USA
# Sequence (P21554 whole entry): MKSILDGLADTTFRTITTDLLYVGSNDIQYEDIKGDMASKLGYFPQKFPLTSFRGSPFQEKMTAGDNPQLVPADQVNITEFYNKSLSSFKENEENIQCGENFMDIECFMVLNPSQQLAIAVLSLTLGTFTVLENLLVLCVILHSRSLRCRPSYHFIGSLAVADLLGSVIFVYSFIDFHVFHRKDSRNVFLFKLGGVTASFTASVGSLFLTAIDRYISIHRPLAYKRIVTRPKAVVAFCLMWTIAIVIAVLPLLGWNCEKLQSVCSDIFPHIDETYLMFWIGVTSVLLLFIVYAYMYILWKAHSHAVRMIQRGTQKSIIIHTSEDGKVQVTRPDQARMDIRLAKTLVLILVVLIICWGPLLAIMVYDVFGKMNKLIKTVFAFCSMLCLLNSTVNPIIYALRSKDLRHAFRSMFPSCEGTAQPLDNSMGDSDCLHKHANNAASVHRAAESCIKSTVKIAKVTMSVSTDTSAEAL
# method notes: Functional selectivity panel, cannabinoid 1 receptor
property: IC50 (nM)
One number for each entry, in nM.

*Q* Which IC50 reading was recorded for the compound O=C(Cc1cncc(-n2cc(Cl)c3cc(Cl)cc(Cl)c32)c1)N[C@@H]1COC[C@H]1O ?
*A* 1400

====

Can you tell me efflux ratio at 2 h, 2 µM for the items I'm about to list?
# method notes: Bidirectional permeability in Caco-2 cells
# Assay type: in vitro ADME, human
# test parameters: human, Caco-2, pH 7.4, 2.00 μM
Answers are plain numbers.

smiles repr | property | recorded result
O=C(Cc1cc(-n2cc(Cl)c3cc(Cl)cc(Cl)c32)ncn1)N[C@@H]1COC[C@H]1O | efflux ratio at 2 h, 2 µM | 5.4

*Q* May I ask what efflux ratio at 2 h, 2 µM has been recorded for O=C(Cc1cc(-n2cc(Cl)c3cc(Cl)cc(Cl)c32)cnn1)N[C@@H]1COC[C@H]1O ?
*A* 84
